// reported protein stability index per item
B1: C10orf62 (parent)
chain: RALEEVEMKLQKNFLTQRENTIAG

variants of: B1; assay: protein stability index of a GFP-peptide fusion (GPS, HEK-293T) (PSI 1-6); higher = more stable; conditions: c terminus: a fixed tail appended;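 also: lentivirally expressed fusions sorted by FACS into six bins by GFP to DsRed ratio, PSI derived from sequencing read proportions per bin multiplied by bin number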
Please state the value as a number alone, without comment.

protein stability index measured on N13Y = 2.62

protein stability index measured on R18D = 4.59

protein stability index measured on E4N = 3.29
